Numbers sourced from patent US6750247B2.

Test system: primary hippocampal neuronal cells
method summary: Hippocampal anoxia-reoxygenation cell death assay
Type: cell-based, mice
experimental conditions: at dose for max. activity; 5 hr hypoxia, 20-24 hr reoxygenation, live neurons by Cell Tracker Green
Method: Neurobasal medium (Life Technologies, Rockville, Md.) with 1× B27 supplement (Life Technologies), […], 25 μM L-glutaxnic acid, and 1× Penicillin/Streptomycin was prepared fresh prior to use. […] The density of cells was determined on a small aliquot of cells using standard counting procedures and correcting for cell viability by trypan blue stain exclusion. […]
attribute measured: Percent Activity (%)
Kindly provide the numeric value in % only, without the unit symbol.

CC(C)=CCC/C(C)=C/CCC1=CC(=O)OC1O (racemic)
56
CC(C)=CCC[C@@]1(C)CCC[C@]2(C)[C@@H](Cc3cc(C(=O)O)ccc3O)C(C)=CC[C@@H]12 [(−)-jaspic acid (4)]
63
CC1=CCC[C@H](C)[C@]1(C)CC/C(C)=C/CCc1ccoc1 [(+)-subersin (2)]
30
CC(=O)O[C@@H]1OC=C2[C@@H](OC(C)=O)C[C@H]3[C@]4(C)CC[C@@H]5C([C@H](C)CCC5(C)C)[C@H]4C[C@@H](O)[C@]3(C)[C@H]21 (stereo partly shown)
21

Here is the next item to consider.
Briefly, Percent Activity measured for CC1=C(CC/C(C)=C/CC/C(C)=C/Cc2cc(O)ccc2O)C(C)(C)CCC1 : 20
